tested on: HT29 cells; assay: Sensitisation of HT29 cells to SN38 (Alamar blue cell growth); format: cell-based, human; conditions: HT29 cells; test compound at 3 μM
Counter-ions that a name gives are not always drawn.
quantity.kind: fold shift in the IC50 value of SN38

See these solved cases before continuing.
{"compound": "N#Cc1cnc(NC(=O)Nc2ccc(CCNCc3ccc(F)c(F)c3)c(Cl)c2)cn1", "result": "three"}
{"compound": "COc1cc(CNCc2ccc(F)cc2)ccc1NC(=O)Nc1cnc(C#N)cn1 [Example 57, hydrochloride]", "result": "greater than ten"}
{"compound": "COc1cccc(CNCCc2cc(OC)c(NC(=O)Nc3cnc(C#N)cn3)cc2Cl)c1 [Example 48, hydrochloride]", "result": "greater than ten"}
{"compound": "N#Cc1cnc(NC(=O)Nc2ccc(CCNCc3ccccc3)cc2)cn1", "result": "three"}
{"compound": "N#Cc1cnc(NC(=O)Nc2ccc(CCNCc3ccc(F)cc3F)cc2)cn1", "result": "three"}

Just so you know, measured fold shift in the IC50 value of SN38 for COc1ccc(CNCCc2cc(OC)c(NC(=O)Nc3cnc(C#N)cn3)cc2Cl)cc1 [Example 49, hydrochloride] came out at greater than ten

Just so you know, measured fold shift in the IC50 value of SN38 for N#Cc1cnc(NC(=O)Nc2ccc(CCNCc3ccc(F)cc3F)c(Cl)c2)cn1 came out at three

Just so you know, measured fold shift in the IC50 value of SN38 for CN(CCc1ccc(NC(=O)Nc2cnc(C#N)cn2)cc1Cl)Cc1ccc(F)cc1 came out at three

---

system: HT29 cells; assay: Sensitisation of HT29 cells to SN38 (Alamar blue cell growth); assay type: cell-based, human; conditions: HT29 cells; test compound at 1 μM
Structures can show the parent of a compound that is named as a salt.
quantity.kind: fold shift in the IC50 value of SN38

{"molecule": "COc1cc(CNCc2ccc(F)cc2)ccc1NC(=O)Nc1cnc(C#N)cn1 [Example 57, hydrochloride]", "fold shift in the IC50 value of SN38": "two"}
{"molecule": "N#Cc1cnc(NC(=O)Nc2ccc(CCNCc3ccc(C(F)(F)F)cc3)c(Cl)c2)cn1 [Example 17, hydrochloride]", "fold shift in the IC50 value of SN38": "two"}
{"molecule": "COc1cc(CCNCc2ccc(F)cc2)c(Br)cc1NC(=O)Nc1cnc(C#N)cn1 [Example 42, hydrochloride]", "fold shift in the IC50 value of SN38": "two"}
{"molecule": "COc1cccc(CNCCc2cc(OC)c(NC(=O)Nc3cnc(C#N)cn3)cc2Cl)c1 [Example 48, hydrochloride]", "fold shift in the IC50 value of SN38": "two"}
{"molecule": "N#Cc1cnc(NC(=O)Nc2ccc(CCNCc3cccc(Cl)c3)c(Cl)c2)cn1 [Example 13, hydrochloride]", "fold shift in the IC50 value of SN38": "two"}
{"molecule": "COc1ccccc1CNCCc1ccc(NC(=O)Nc2cnc(C#N)cn2)cc1Cl", "fold shift in the IC50 value of SN38": "two"}

Just so you know, measured fold shift in the IC50 value of SN38 for CN1CCN(c2ccc(CNCCc3ccc(NC(=O)Nc4cnc(C#N)cn4)cc3Cl)cc2)CC1 came out at two

Just so you know, measured fold shift in the IC50 value of SN38 for COc1cc(CCNCc2ccc(N3CCN(C)CC3)cc2)c(Cl)cc1NC(=O)Nc1cnc(C#N)cn1 [Example 50, hydrochloride] came out at two
